Consider the following variants; for each one, report its protein stability index.
B1: PRPH (parent)
chain: DEIEFLKKLHEEELRDLQVSVESQ

variants of: B1; test: protein stability index of a GFP-peptide fusion (GPS, HEK-293T) (PSI 1-6); higher = more stable; settings: c terminus: a fixed tail appended;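 further: lentivirally expressed fusions sorted by FACS into six bins by GFP to DsRed ratio, PSI derived from sequencing read proportions per bin multiplied by bin number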
Numbers only.

Residue change: E4W
Reading: 3.18

Give protein stability index for each listed item.
1. E4A
2. R15G

4.36
4.28

This collection of values is drawn from the supplement of paper PMC10567573.
